Every entry's value here was drawn from the RNAGym collection of RNA variant scans (doi:10.7554/elife.90254).

B1: OR4K15 (parent)
chain: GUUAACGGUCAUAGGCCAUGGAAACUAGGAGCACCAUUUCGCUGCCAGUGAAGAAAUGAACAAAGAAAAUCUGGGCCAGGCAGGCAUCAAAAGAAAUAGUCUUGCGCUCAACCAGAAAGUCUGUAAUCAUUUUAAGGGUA

- Variants of: B1
- procedure text: self-cleavage, relative activity (ratio to wild type); higher = more cleavage; in vitro, sequencing; the parent is a self-cleaving ribozyme
quantity kind: self-cleavage

Some solved entries appear below for comparison.
A67U U72C    0.31
A67U U130C    1.04
A64G G84C    0.31
A47G U120A    1.21
A27G U133G    2.02
U38C G44A    1.16
A60G U122A    1.41
G7A A86G    0.94

The variant listed as A56G A94U has a reported self-cleavage of 1.08

Record summary for A95U A118G : reported self-cleavage = 1.41

So, A111G U124G ? Its self-cleavage was 0.01

Form field self-cleavage, entry A4G A64G : 1.21

Sure, the documented self-cleavage for G7U A86G is 1.64

self-cleavage recorded for this variant, U102C U122A , is 1.51

The variant identified as A91U U124A registered its self-cleavage at 0.84
